Test: Inhibition of AZT-MP production by cell free extracts of CEM cells
Format: functional, Homo sapiens, CCRF-CEM
Parameters: unit not given here
Field: Activity. Provide a value for each of the molecules that follow.
Reply briefly: the number, and no unit.

Query: Return Activity for the following molecule: COC(=O)[C@H](Cc1c[nH]c2ccccc12)NP(=O)(O)OC[C@H]1O[C@@H](n2cc(C)c(=O)[nH]c2=O)C[C@@H]1N=[N+]=[N-]
Result: 6.39

Query: Return Activity for the following molecule: COC(=O)[C@H](Cc1ccccc1)NP(=O)(O)OC[C@H]1O[C@@H](n2cc(C)c(=O)[nH]c2=O)C[C@@H]1N=[N+]=[N-]
Result: 6.3

Query: Return Activity for the following molecule: COC(=O)[C@@H](Cc1c[nH]c2ccccc12)NP(=O)(O)OC[C@H]1O[C@@H](n2cc(C)c(=O)[nH]c2=O)C[C@@H]1N=[N+]=[N-].COC(=O)[C@H](Cc1c[nH]c2ccccc12)NC(=O)OC[C@H]1O[C@@H](n2cc(C)c(=O)[nH]c2=O)C[C@@H]1N=[N+]=[N-]
Result: 2.56

Query: Return Activity for the following molecule: COC(=O)[C@H](Cc1ccccc1)NC(=O)OC[C@H]1O[C@@H](n2cc(C)c(=O)[nH]c2=O)C[C@@H]1N=[N+]=[N-].COC(=O)[C@H](Cc1ccccc1)NP(=O)(O)OC[C@H]1O[C@@H](n2cc(C)c(=O)[nH]c2=O)C[C@@H]1N=[N+]=[N-]
Result: 0.03

====

Tested on: U1
Assay: Antiviral activity was determined in chronically infected U1 cell line with HIV-1
Type: functional, cell-based
Settings: Homo sapiens
Field: pEC50. Provide a value for each of the compounds that follow.
Hey, just a heads up that pEC50 is the negative log base 10 of the concentration in molar.

Query: Return pEC50 for the following compound: COC(=O)[C@H](Cc1ccccc1)NP(=O)(O)OC[C@H]1O[C@@H](n2cc(C)c(=O)[nH]c2=O)C[C@@H]1N=[N+]=[N-]
Result: 4.60

Query: Return pEC50 for the following compound: Cc1cn([C@H]2C[C@H](N=[N+]=[N-])[C@@H](CO)O2)c(=O)[nH]c1=O
Result: 4.60

Query: Return pEC50 for the following compound: COC(=O)[C@H](Cc1c[nH]c2ccccc12)NP(=O)(O)OC[C@H]1O[C@@H](n2cc(C)c(=O)[nH]c2=O)C[C@@H]1N=[N+]=[N-]
Result: 4.40

====

Species on record: Homo sapiens
Test: Effective concentration to inhibit HIV-1 replication by 50% in PMBCs cells from donor 2
Type: functional, cell-based
measurementKind: EC50 (nM)
Could you give me the number in nM? Just the number is fine.

Query: Return EC50 for the following compound: COC(=O)[C@H](Cc1c[nH]c2ccccc12)NP(=O)(O)OC[C@H]1O[C@@H](n2cc(C)c(=O)[nH]c2=O)C[C@@H]1N=[N+]=[N-]
Result: 350

====

Organism: Homo sapiens
Test: Effective concentration required to inhibit the replication of HIV-1 by 50% in PMBCs in the presence of thymidine
Assay type: functional, organism-based
Field: EC50. Provide a value for each of the molecules that follow.
Could you give me the number in µM? Just the number is fine.

Query: Return EC50 for the following molecule: COC(=O)[C@@H](NP(=O)(O)OC[C@H]1O[C@@H](n2cc(C)c(=O)[nH]c2=O)C[C@@H]1N=[N+]=[N-])C(C)C
Result: 30

Query: Return EC50 for the following molecule: Cc1cn([C@H]2C[C@H](N=[N+]=[N-])[C@@H](CO)O2)c(=O)[nH]c1=O [ZIDOVUDINE]
Result: 0.3

Query: Return EC50 for the following molecule: COC(=O)[C@H](Cc1c[nH]c2ccccc12)NP(=O)(O)OC[C@H]1O[C@@H](n2cc(C)c(=O)[nH]c2=O)C[C@@H]1N=[N+]=[N-]
Result: 30
